# experiment: Cellular CaCo2 permeability assay from apical to basal (A-B)
# Type: in vitro ADME
# conditionLabel: human, Caco-2, read-out: Pe A-B (permeability)
valueType: Papp A→B (×10⁻⁶ cm/s)

These solved cases illustrate the format of a correct answer.
CCOc1ccc(-c2ccc3ncc4c(c3c2)n(-c2c(C)nn(C)c2C)c(=O)n4C)cn1    21
COc1ccc(-c2ccc3ncc4[nH]c(=O)n(-c5cc(C)nn5C)c4c3n2)cc1OC    29.4
Cc1nn(C(C)C)cc1-n1c(=O)n(C)c2cnc3ccc(-c4cncc(C(C)(C)O)c4)cc3c21    5.9
CCOc1ccc(-c2ccc3ncc4c(c3c2)n(-c2cn(CC(=O)N(C)C)nc2C)c(=O)n4C)cn1    14.8
CCn1cc(-n2c(=O)n(C)c3cnc4ccc(-c5ccc(OC)c(OC)c5)cc4c32)c(C)n1    31.6
CCn1cc(-n2c(=O)n(C)c3cnc4ccc(-c5cnc(N(C)C)nc5)cc4c32)c(C)n1    29.7

I. COc1ccc(-c2ccc3ncc4c(c3c2)n(-c2cn(C)nc2C)c(=O)n4C)cc1OC
II. Cc1nn(C)cc1-n1c(=O)n(C)c2cnc3ccc(-c4cncc(N5CCOCC5)c4)cc3c21
Exercise: Sorting by Papp A→B in descending order, would I or II appear first? State your choice using its label.
Key: I
(I: 28.6 ×10⁻⁶ cm/s, II: 7.8 ×10⁻⁶ cm/s)

###

# targetDesc: PI3K alpha (Homo sapiens)
# Construct: p85(iSH2) fusion partner (see partner chain) (N); His tag (C); Tn5 (Trichoplusia ni) or TiniPro insect cells
# Sequence (P42336 with tags, fused parts or gaps limits assumed): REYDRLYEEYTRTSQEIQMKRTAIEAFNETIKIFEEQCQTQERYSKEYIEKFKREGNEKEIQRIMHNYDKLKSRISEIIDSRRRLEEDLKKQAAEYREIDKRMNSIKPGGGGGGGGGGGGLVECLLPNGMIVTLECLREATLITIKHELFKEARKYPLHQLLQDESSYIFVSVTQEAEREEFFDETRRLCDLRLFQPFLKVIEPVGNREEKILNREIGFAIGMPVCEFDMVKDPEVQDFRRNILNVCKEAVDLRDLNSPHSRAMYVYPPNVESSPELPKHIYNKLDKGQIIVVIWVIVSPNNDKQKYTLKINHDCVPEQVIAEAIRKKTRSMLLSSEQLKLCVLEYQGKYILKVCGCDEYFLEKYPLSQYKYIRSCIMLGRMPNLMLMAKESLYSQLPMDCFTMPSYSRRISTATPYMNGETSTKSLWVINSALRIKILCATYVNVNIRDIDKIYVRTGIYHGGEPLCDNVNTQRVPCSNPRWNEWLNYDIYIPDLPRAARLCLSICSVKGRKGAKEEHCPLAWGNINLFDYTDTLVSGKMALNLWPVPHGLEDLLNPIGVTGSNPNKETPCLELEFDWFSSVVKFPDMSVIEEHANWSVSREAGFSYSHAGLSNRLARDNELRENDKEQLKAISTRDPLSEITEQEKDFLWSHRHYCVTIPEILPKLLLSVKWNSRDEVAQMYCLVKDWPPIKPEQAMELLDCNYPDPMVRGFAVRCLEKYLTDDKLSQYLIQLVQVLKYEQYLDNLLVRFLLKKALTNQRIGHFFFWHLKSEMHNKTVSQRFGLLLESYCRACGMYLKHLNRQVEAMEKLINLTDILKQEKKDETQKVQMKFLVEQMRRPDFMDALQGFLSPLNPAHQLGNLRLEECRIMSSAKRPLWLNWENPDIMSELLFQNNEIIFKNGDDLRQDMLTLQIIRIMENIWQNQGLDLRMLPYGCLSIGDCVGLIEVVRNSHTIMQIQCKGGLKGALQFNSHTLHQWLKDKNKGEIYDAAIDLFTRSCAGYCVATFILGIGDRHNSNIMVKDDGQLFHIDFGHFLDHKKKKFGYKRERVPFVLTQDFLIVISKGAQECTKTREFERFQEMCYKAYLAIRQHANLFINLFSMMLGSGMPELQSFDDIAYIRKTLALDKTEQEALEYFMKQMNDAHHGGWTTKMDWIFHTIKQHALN
# experiment: PI3K alpha kinase assay (Kinase-Glo luminescence)
valueType: IC50 (nM)

Please review the entries below; each comes with its answer.
Cc1nn(C)cc1-n1c(=O)n(C)c2cnc3ccc(-c4cccc(NS(C)(=O)=O)c4)cc3c21    73
CN(C)c1ccc(-c2ccc3ncc4c(c3c2)n(-c2cn(C)nc2Cl)c(=O)n4C)cn1    9
Cc1nn(C)cc1-n1c(=O)n(C)c2cnc3ccc(-c4cnc5c(c4)C(C)(C)C(=O)N5C)cc3c21    22

a. CCOc1cc(-c2ccc3ncc4c(c3c2)n(-c2c(C)nn(CC(=O)N(C)C)c2C)c(=O)n4C)cnc1C
b. COc1ccc(-c2ccc3ncc4c(c3c2)n(-c2ccnn2C)c(=O)n4C)cn1
c. Cc1ncc(-c2ccc3ncc4c(c3c2)n(-c2cn(C)nc2C)c(=O)n4C)cc1NS(C)(=O)=O
d. CCn1cc(-n2c(=O)n(C)c3cnc4ccc(-c5cnc(COC)c(OC(C)C)c5)cc4c32)c(C)n1
Exercise: # sort list by recorded IC50, greatest to least // format: requested-order list of labels
Key: b, a, d, c
(b: 62 nM, a: 34 nM, d: 13 nM, c: 6 nM)

1. COc1cc(-c2ccc3ncc4c(c3c2)n(-c2cn(C(C)C)nc2C)c(=O)n4C)cnc1CO
2. CCOc1cc(-c2ccc3ncc4c(c3c2)n(-c2cn(C)nc2C)c(=O)n4C)ccn1
3. CCN(C)c1ccc(-c2ccc3ncc4c(c3c2)n(-c2cn(CC)nc2C)c(=O)n4C)cn1
4. Cc1cc(-n2c(=O)n(C)c3cnc4ccc(-c5cnc(C)c(O)c5)cc4c32)n(C)n1
Exercise: // ascending sort on recorded IC50 Form field (ranking): labels in requested order.
Key: 4, 1, 3, 2

a. Cc1nn(C)cc1-n1c(=O)n(C)c2cnc3ccc(-c4ccc(N5CCNCC5)nc4)cc3c21
b. Cc1nn(CC(=O)N(C)C)c(C)c1-n1c(=O)n(C)c2cnc3ccc(-c4ccc(-n5cccn5)cc4)cc3c21
Exercise: Could you tell me which of a and b has the lower IC50 reading? Identify your pick by its label.
Key: b

I. COCc1ncc(-c2ccc3ncc4c(c3c2)n(-c2cn(C(C)C)nc2C)c(=O)n4C)cc1OC
II. Cc1nn(C(C)C)cc1-n1c(=O)n(C)c2cnc3ccc(-c4ccc(N(C)C)nc4)cc3c21
Exercise: Smaller IC50 value? Options are I and II To answer, give the label that identifies your chosen option.
Key: I
(I: 37 nM, II: 60 nM)

Sourced from patent US20140005163A1
